TEST METHOD NOTES: AUC (total) in C57BL6 mouse at 1 mg/kg, iv
Type: ADME, organism-based
Set-up: dose 1 mg/kg, route iv
EXPERIMENTAL CONTEXT: in vivo
ENDPOINT: AUC

So what's the measured AUC for this one? CC(C)(O)c1ccc(-c2cccc(N(CC34CCC(c5noc(C(C)(C)F)n5)(CC3)CC4)C(=O)[C@H]3C[C@](O)(C(F)(F)F)C3)c2)cc1
16.4 µM·h

###

TEST METHOD NOTES: Metabolic stability in mouse liver microsome assessed as parent compound remaining at […] measured after 10 mins
Type: ADME
EXPERIMENTAL CONTEXT: liver microsomes, read-out: Stability
ENDPOINT: remaining at 10 min (%)
Use % as the unit, but write only the number.

Solved entries:
{"QUERY SMILES": "CC(C)(C)c1nc(C23CCC(CN(C(=O)C45CC(F)(C4)C5)c4cccc(-c5nc(C6CC6)no5)c4)(CC2)CC3)no1", "ENDPOINT": "remaining at 10 min", "RESULT NUMBER": 92}
{"QUERY SMILES": "O=C(C1CCC(F)(F)CC1)N(CC12CCC(c3nc(C4CC4)no3)(CC1)CC2)c1cccc(-c2nc(C3CC3)no2)c1", "ENDPOINT": "remaining at 10 min", "RESULT NUMBER": 82}

So what's the measured remaining at 10 min for this one? CC(C)(O)c1ccc(-c2cccc(N(CC34CCC(c5noc(C(C)(C)F)n5)(CC3)CC4)C(=O)[C@H]3C[C@](O)(C(F)(F)F)C3)c2)cc1
90
